compounds and their reported Solubility in water (% w/w)
- Assay method text: Solubility in water

- Compound: "CCCCC(OC)C(=O)N(C)C (stereo not shown)"
  Solubility in water (% w/w): "<0.05 % w/w"
- Compound: "CCCC(OCC)C(=O)N(C)C (stereo not shown)"
  Solubility in water (% w/w): "<0.1 % w/w"
- Compound: "CCCCC(OCC)C(=O)N(C)C (stereo not shown)"
  Solubility in water (% w/w): "<0.05 % w/w"
- Compound: "CCCC(OC)C(=O)N(C)C (stereo not shown)"
  Solubility in water (% w/w): "<0.1 % w/w"
